Listing of recorded pKi by entry.
Target chain: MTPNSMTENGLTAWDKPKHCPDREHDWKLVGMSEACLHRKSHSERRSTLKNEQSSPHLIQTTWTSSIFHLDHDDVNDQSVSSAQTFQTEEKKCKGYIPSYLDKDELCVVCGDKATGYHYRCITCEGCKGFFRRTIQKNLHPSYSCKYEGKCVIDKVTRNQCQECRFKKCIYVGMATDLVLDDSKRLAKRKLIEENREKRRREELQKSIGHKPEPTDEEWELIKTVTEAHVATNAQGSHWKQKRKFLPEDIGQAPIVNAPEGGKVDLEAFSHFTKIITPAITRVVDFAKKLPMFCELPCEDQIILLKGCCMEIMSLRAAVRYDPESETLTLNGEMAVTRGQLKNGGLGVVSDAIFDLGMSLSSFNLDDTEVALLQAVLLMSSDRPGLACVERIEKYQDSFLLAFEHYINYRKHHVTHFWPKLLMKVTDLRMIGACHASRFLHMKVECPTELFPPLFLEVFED
The meaning of pKi here: minus log10 of the concentration in molar units.

[
  {
    "smiles_input": "CC(C)c1cc(Oc2c(Br)cc(CCP(=O)(O)O)cc2Br)ccc1O",
    "pKi": 8.60
  },
  {
    "smiles_input": "Cc1cc(NCP(=O)(O)O)cc(C)c1Cc1ccc(O)c(C(C)C)c1",
    "pKi": 8.04
  },
  {
    "smiles_input": "CC(C)c1cc(Oc2c(Cl)cc(NCP(=O)(O)O)cc2Cl)ccc1O",
    "pKi": 7.52
  },
  {
    "smiles_input": "CC(C)c1cc(Oc2c(Br)cc(CP(=O)(O)O)cc2Br)ccc1O",
    "pKi": 7.81
  }
]

In the following, a different compound is considered.
### Prompt Name the reported pKi value associated with the compound Cc1cc(NC(=O)C(=O)O)cc(C)c1Oc1ccc(O)c(C(C)C)c1
### Response 9.33

* * *

Test: Mean residence time in Sprague-Dawley rat at 3 mg/kg, iv
Format: ADME, organism-based
Design: dose 3 mg/kg, route intravenous
Settings: in vivo
outcome_measure: MRT (h)
Reply with just the number (in h).

### Prompt Given Cc1cc(OCP2(=O)OCC[C@@H](c3cccc(Cl)c3)O2)cc(C)c1Cc1ccc(O)c(C(C)C)c1 (stereo partly specified) [MB07811] , state its recorded MRT.
### Response 1.2

* * *

Experiment: Tmax in Sprague-Dawley rat at 3 mg/kg, iv
Assay type: ADME, organism-based
Design: dose 3 mg/kg, route intravenous
Conditions: in vivo
outcome_measure: Tmax (h)
Quick note: give the figure in h, leave out the unit.

### Prompt GET /values?readout=Tmax&item= Cc1cc(OCP2(=O)OCC[C@@H](c3cccc(Cl)c3)O2)cc(C)c1Cc1ccc(O)c(C(C)C)c1 (stereo partly specified)
### Response 0

* * *

Test: AUClast in Sprague-Dawley rat at 3 mg/kg, iv
Format: ADME, organism-based
Set-up: time 0 - last, dose 3 mg/kg, route intravenous
Conditions: plasma
outcome_measure: AUC(0-t) (ng·h/mL)
Report only the number, with the unit ng·h/mL understood.

### Prompt For the compound Cc1cc(OCP2(=O)OCC[C@@H](c3cccc(Cl)c3)O2)cc(C)c1Cc1ccc(O)c(C(C)C)c1 (stereo partly specified) [MB07811] , what AUC(0-t) is on record?
### Response 260
